Assign T to entries whose logP meets or exceeds 7; assign F to the rest.

smiles_string=Clc1cc2c(oc3c(Cl)c(Cl)c(Cl)c(Cl)c32)c(Cl)c1Cl class_label=T

Query :: // inclusive: logP at least 7? input: `Clc1cc2oc3c(Cl)c(Cl)ccc3c2cc1Cl`
Result :: F

Query :: // inclusive: logP at least 7? input: `Clc1cc2c(oc3c(Cl)cccc32)c(Cl)c1Cl`
Result :: F

Query :: // inclusive: logP at least 7? input: `Clc1cc2oc3ccc(Cl)c(Cl)c3c2cc1Cl`
Result :: F

Query :: // inclusive: logP at least 7? input: `Clc1ccc2c(c1)oc1c(Cl)c(Cl)cc(Cl)c12`
Result :: F
